So I've got a bunch of molecules here, and I need their pKi values.
- target under test: human orexin 2 receptor (Homo sapiens (Human), UniProt O43614)
- Sequence (O43614 whole entry): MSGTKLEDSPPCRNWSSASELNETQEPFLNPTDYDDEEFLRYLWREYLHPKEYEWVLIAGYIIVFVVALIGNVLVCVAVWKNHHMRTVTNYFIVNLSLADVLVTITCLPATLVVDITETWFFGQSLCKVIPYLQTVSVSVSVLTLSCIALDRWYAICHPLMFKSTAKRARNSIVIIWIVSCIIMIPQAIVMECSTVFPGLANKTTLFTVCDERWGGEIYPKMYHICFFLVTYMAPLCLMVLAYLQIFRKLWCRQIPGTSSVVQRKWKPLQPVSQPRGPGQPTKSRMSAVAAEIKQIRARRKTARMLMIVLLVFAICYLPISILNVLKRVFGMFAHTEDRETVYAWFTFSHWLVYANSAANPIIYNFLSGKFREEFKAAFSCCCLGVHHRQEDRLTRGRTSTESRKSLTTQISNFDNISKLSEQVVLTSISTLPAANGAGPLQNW
- method description: Human orexin 2 receptor radioligand binding (competitive, [3H]-EMPA, HEK293 cell preparations)
- reported conditions: human orexin 2 receptor, [3H]-EMPA competition binding; read-out: hOX2 Ki (nm)
pKi: −log10 of the molar value.

query: Param item = CCOc1ncc(-c2ccccc2)cc1C(=O)N1C2CCC1C(COc1ccccn1)C2 (racemic) [Example 160] ; retrieve measured pKi.
result: < 5.00

query: Same lookup for COc1c(F)cccc1C(=O)N1C2CCC1C(Nc1ncc(C(F)(F)F)cn1)C2 (racemic) [Example 226] , please.
result: < 5.00

query: Same lookup for Cc1cc(C)nc(OCC2CC3CCC2N3C(=O)c2ccc(C)nc2-n2nccn2)n1 (racemic) [Example 151] , please.
result: ≤ 5.00
